- Tested on: melanin nanoparticles (mNPs)
- experimental-details: In vitro melanin binding assay (binding capacity and Kd, RED device, HPLC)
- Design: species or system Sepia officinalis
- condition-notes: binding capacity and dissociation constant of ocular drugs, melanin
measure-name: Binding Capacity (mole/mg melanin)
Numbers only, in mole/mg melanin.

INSERT INTO results (compound, measure_name, unit_abbreviation, number) VALUES
  ('CCNCCNC(=O)c1c(C)[nH]c(/C=C2\C(=O)Nc3ccc(F)cc32)c1C [N-Desethyl Sunitinib]', 'Binding Capacity (mole/mg melanin)', 'mole/mg melanin', '2.61e-6'),
  ('CCN(CC)CCCC(C)Nc1ccnc2cc(Cl)ccc12 (stereo not shown) [Chloroquine]', 'Binding Capacity (mole/mg melanin)', 'mole/mg melanin', '3.8e-7'),
  ('COCCc1ccc(OCC(O)CNC(C)C)cc1 (stereo not shown) [Metoprolol]', 'Binding Capacity (mole/mg melanin)', 'mole/mg melanin', '2.69E-08'),
  ('CC(C)(C)NC[C@H](O)COc1nsnc1N1CCOCC1 [Timolol]', 'Binding Capacity (mole/mg melanin)', 'mole/mg melanin', '3.9e-8'),
  ('Brc1c(NC2=NCCN2)ccc2nccnc12 [brimonidine]', 'Binding Capacity (mole/mg melanin)', 'mole/mg melanin', '5e-8'),
  ('CC12CC3CC(C)(C1)CC(N)(C3)C2 [Memantine]', 'Binding Capacity (mole/mg melanin)', 'mole/mg melanin', '2.07e-7');

QUERY: Any idea what Binding Capacity (mole/mg melanin) was measured for CC1(C)O[C@@H]2C[C@H]3[C@@H]4CCC5=CC(=O)C=C[C@]5(C)[C@@]4(F)[C@@H](O)C[C@]3(C)[C@]2(C(=O)CO)O1 [Triamcinolone Acetonide] ?
RESULT: 2.24E-08

====

- Tested on: human cathepsins B, K, L, and S
- experimental-details: in vitro
- condition-notes: isolated enzyme cathepsin other, pH 5.5, cathepsin cleavage assay
Ends that are not written are not given here.
measure-name: remaining at 48 h, 100 µM (%)
Answers are plain numbers, in %.

QUERY: If you can, please state the reported remaining at 48 h, 100 µM value of FSGKRRKRKPR [HR97] .
RESULT: 87.7

====

- tested-system: melanin nanoparticles (mNPs)
- experimental-details: In vitro melanin binding assay (binding capacity and Kd, RED device, HPLC)
- Set-up: species or system Sepia officinalis
- condition-notes: binding capacity and dissociation constant of ocular drugs, melanin
measure-name: pKd
One number for each entry, as −log10 of the molar value.

QUERY: Quick check: pKd of FSGKRRKRKPRC [HR97-brimonidine, HR97 peptide conjugated to brimonidine via a quaternary-ammonium traceless linker (MC-Val-Cit-PAB)] ?
RESULT: 5.36

====

- tested-system: melanin nanoparticles (mNPs)
- experimental-details: In vitro melanin binding assay (binding capacity and Kd, RED device, HPLC)
- condition-notes: binding capacity and dissociation constant of ocular drugs, melanin
- Method: The solutions (400 µL) were then mixed thoroughly with 400 µL of 1 mg/mL mNPs in pH 6.5 PBS solution and transferred to the inner reservoir of the rapid equilibrium dialysis (RED) device inserts (8 K MWCO). The outer reservoir was filled with 800 µL of pH 6.5 PBS solution. The samples were incubated on an orbital shaker with temperature control at 37 °C and 300 rpm for 48 h (n = 3). […]
Please go through the items and note down their Kd.
Remember to quote the unit after the number.

The examples below pair each entry with its known result.
INSERT INTO assay_data (compound, tested_system, measure_name, result) VALUES
  ('CC12CC3CC(C)(C1)CC(N)(C3)C2 [Memantine]', 'melanin nanoparticles (mNPs)', 'Kd', '804 µM'),
  ('CC(C)(C)NC[C@H](O)COc1nsnc1N1CCOCC1 [Timolol]', 'melanin nanoparticles (mNPs)', 'Kd', '120 µM'),
  ('Brc1c(NC2=NCCN2)ccc2nccnc12 [brimonidine]', 'melanin nanoparticles (mNPs)', 'Kd', '5.27 µM'),
  ('CCN(CC)CCCC(C)Nc1ccnc2cc(Cl)ccc12 (stereo not shown) [Chloroquine]', 'melanin nanoparticles (mNPs)', 'Kd', '76 µM'),
  ('CCNCCNC(=O)c1c(C)[nH]c(/C=C2\C(=O)Nc3ccc(F)cc32)c1C [N-Desethyl Sunitinib]', 'melanin nanoparticles (mNPs)', 'Kd', '2.13 µM');

Respectfully, I request Kd for each entry included below.
1. CC1(C)O[C@@H]2C[C@H]3[C@@H]4CCC5=CC(=O)C=C[C@]5(C)[C@@]4(F)[C@@H](O)C[C@]3(C)[C@]2(C(=O)CO)O1 [Triamcinolone Acetonide]
2. COCCc1ccc(OCC(O)CNC(C)C)cc1 (stereo not shown) [Metoprolol]

RESULT:
12.5 µM
495 µM
